Each recorded value in this set is attributed to patent US10681909B2.

test system: wheat; assay: Test A postemergence; assay type: in vivo, Triticum aestivum; details: 125 g ai/ha, 0 to 100 scale (0 no effect, 100 complete control), approx. 10 d
Excerpt: […]
Recorded endpoint: Plant response rating, Wheat
Numbers only.

Below: 2 molecules and their reported Plant response rating, Wheat.
COc1nc(-c2ccc(OC(F)(F)F)cc2)nn1Cc1ccnc(C(F)(F)F)c1 :: 0
CCCOc1nc(-c2ccc(C(F)(F)F)cc2)nn1Cc1ccnc(C(F)(F)F)c1 :: 20

The record that follows has no Plant response rating, Wheat shown yet.
Please give measured Plant response rating, Wheat of the following entry: CCCn1nc(-c2ccc(F)cc2)nc1C(O)c1ccnc(C(F)(F)F)c1 (stereo not drawn)
10

---

system: oilseed rape; assay: Test C preemergence; type: in vivo, Brassica napus; conditions: Oilseed Rape, preemergence, 250 g ai/ha
Answer each item with its documented Plant response rating (scale of 0 to 100 where 0 is no effect and 100 is complete control).
Give bare numbers.

CCCc1nc(-c2ccc(F)cc2)nn1Cc1ccnc(C(F)(F)F)c1 [Compound 6] :: 100
CCc1nc(-c2ccc(C(F)(F)F)cc2)nn1Cc1ccnc(C(F)(F)F)c1 [Compound 1] :: 100

Please find the next compound below.
State its Plant response rating (scale of 0 to 100 where 0 is no effect and 100 is complete control): CCOc1nc(-c2ccc(C(F)(F)F)cc2)nn1Cc1ccnc(C(F)(F)F)c1 [Compound 35]
90
